Values were extracted from paper PMC9579956.

target: Mycobacterium thermoresistible (Mtr) LpqY (Mycolicibacterium thermoresistibile); assay type: binding; conditions: single dose MST screen against LpqY
Sequence (G7CES0 29-471): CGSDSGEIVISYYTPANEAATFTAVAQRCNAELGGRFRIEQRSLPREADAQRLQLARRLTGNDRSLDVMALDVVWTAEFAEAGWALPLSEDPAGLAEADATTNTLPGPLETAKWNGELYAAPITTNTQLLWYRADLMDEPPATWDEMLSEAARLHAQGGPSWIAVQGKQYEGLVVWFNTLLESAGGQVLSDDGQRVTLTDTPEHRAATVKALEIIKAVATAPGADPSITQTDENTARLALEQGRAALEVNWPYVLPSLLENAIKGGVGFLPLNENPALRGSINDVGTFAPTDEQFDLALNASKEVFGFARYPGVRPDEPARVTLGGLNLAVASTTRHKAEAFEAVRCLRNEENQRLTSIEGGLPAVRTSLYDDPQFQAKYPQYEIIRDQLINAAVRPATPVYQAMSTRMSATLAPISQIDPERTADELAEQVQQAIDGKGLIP
Some compounds, each annotated with its measured Pathogen Box screen signal/noise ratio.
reported.endpoint: Pathogen Box screen signal/noise ratio

> print(dat)
                                    compound  reported
 1  Cc1cnc(CCNC(=O)c2cc(-c3ccc(Cl)cc3)cs2)[nH]1       1.3
 2                   CCN(CC)C(=O)N1CCN(C)CC1       1.5
 3  CC(C(=O)N1CCCC1)N1CCN(S(=O)(=O)c2ccc(C(C)(C)C)cc2)CC1 (centres unmarked)       1.8
 4           CC(=O)N1CCc2cc3nc(C)cc(C)c3cc21     0.107
 5    Cc1ccc(-c2nc(CN(Cc3ccccn3)C(C)C)cs2)o1       0.0
 6         Clc1ccc(CN2CCN(C3=NCCN3)CC2)cc1Cl     0.464
 7  O=C1O[C@@H](CO)CN1c1cc(F)c(C2=CCN(Cc3ccccc3)CC2)c(F)c1       1.5
 8  NC(CC(=O)c1ccc(Cl)cc1Cl)C(Cl)(Cl)Cl (centres unmarked)       0.8
 9  CO/N=C(\C(=O)OC)c1ccccc1CO/N=C(\C)c1cccc(C(F)(F)F)c1       1.2
10       CCN(CC)CCCCCCNc1cc(OC)cc2c(C)ccnc12       2.2
11   N=C(N)c1ccc(OCCCCCOc2ccc(C(=N)N)cc2)cc1       0.3
